target: Glucagon-like peptide 1 receptor (Homo sapiens) (UniProt P43220); assay: qHTS of GLP-1 Receptor Agonists; conditions: HEK293 GLP-1R CRE-luciferase, luminescence, 4-6 h, cells express a hypersensitive GLP-1R form; series mostly up to 45.6 µM
Sequence (P43220 whole entry, looked up): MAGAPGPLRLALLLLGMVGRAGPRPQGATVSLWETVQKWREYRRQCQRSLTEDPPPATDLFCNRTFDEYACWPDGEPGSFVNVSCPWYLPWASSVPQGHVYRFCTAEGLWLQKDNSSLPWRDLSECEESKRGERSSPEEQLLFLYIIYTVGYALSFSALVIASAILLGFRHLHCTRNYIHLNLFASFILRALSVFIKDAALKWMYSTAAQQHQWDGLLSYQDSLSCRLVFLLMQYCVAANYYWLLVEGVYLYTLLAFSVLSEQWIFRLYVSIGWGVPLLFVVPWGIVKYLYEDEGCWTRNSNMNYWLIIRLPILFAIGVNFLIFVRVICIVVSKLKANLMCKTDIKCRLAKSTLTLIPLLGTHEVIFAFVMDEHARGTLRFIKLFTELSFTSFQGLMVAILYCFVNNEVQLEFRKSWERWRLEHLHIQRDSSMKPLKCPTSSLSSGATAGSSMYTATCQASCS
Hit rate of the full screen: of about 380,000 compounds, about 25 (0.007%) were called active. These entries were drawn from the full list.
observationType: outcome

Worked examples follow.
What value of outcome has been recorded for this entry: Cc1cc2c(cc1S(=O)(=O)CCC(=O)Nc1ccc(OC(F)(F)F)cc1)OCC(=O)N2 inactive

Please give the result for CCCCCCCCCCCCCCCCO too. inactive

Please give the result for Cc1cn([C@H]2CC(F)[C@@H](CO)O2)c(=O)[nH]c1=O (stereo partly specified) too. inactive

Please give the result for CCOCCCNC(=O)c1cn(CC)c2ccc(S(=O)(=O)N3CCc4ccccc4C3)cc2c1=O too. inactive

Please give the result for CCC(C)[C@@H](N)C(=O)O (stereo partly specified) too. inactive

Please give the result for COc1ccc(-c2c(C)nn3c(N4CCC(C(=O)NCCC(C)C)CC4)cc(C)nc23)cc1OC too. inactive

---
What value of outcome has been recorded for this entry: CCn1cc(C(=O)N(C)Cc2ccccc2)c(=O)c2cc(S(=O)(=O)N3CCCCCC3)ccc21 inactive

Please give the result for CCc1ccc(NC(=O)CN2CCSc3ccc(S(=O)(=O)N4CCCC4)cc32)cc1 too. inactive

###

target: Glucagon-like peptide 1 receptor (Homo sapiens) (UniProt P43220); experiment: qHTS of GLP-1 Receptor Agonists; conditions: HEK293 GLP-1R CRE-luciferase, luminescence, 4-6 h, cells express a hypersensitive GLP-1R form; series mostly up to 45.6 µM
The campaign covered roughly 380,000 compounds. About 25 (0.007%) were called active. A selection follows.
observationType: outcome

Worked examples follow.
What value of outcome has been recorded for this entry: O=c1cc2nc(-c3ccccc3)nc(SCCOc3ccc(Cl)cc3)n2[nH]1 inactive

Please give the result for COc1cccc(CNCCSc2nnnn2C)c1OCc1ccccc1Cl too. inactive

Please give the result for COc1ccccc1N1CCN(c2ncnc3onc(-c4ccc(F)cc4)c23)CC1 too. inactive

Please give the result for CC(=O)NC(=O)c1ccccc1O too. inactive

---
What value of outcome has been recorded for this entry: Cc1cccc(Cc2c(C)nc3nc(SCc4ccccc4Cl)nn3c2C)c1 inactive

Please give the result for NCCCCC(N)C(=O)O (stereo unspecified) too. inactive
